Molecular target: UniProt P05177
Sequence (P05177 whole entry): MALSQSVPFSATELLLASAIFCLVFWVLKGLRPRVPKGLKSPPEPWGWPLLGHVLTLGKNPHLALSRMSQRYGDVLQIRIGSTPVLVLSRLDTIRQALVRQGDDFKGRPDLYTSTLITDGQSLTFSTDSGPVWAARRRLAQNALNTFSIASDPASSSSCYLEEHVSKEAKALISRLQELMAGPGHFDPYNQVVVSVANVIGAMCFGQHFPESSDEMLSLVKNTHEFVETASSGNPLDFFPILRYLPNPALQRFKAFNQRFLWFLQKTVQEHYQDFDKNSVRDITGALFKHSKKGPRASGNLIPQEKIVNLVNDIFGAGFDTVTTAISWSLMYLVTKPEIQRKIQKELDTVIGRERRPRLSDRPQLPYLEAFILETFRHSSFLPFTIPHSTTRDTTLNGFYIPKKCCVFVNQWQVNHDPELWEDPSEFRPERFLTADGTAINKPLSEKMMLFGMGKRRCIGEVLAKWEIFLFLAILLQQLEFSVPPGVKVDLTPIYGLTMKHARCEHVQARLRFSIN
pKi: −log10 of the molar value.
Binary call on pKi: 1 from 6 upward, 0 beneath that.

Solved entries (count: 4):
- smiles-string: "O=c1cc(C(F)(F)F)c2ccc3c(c2o1)C=CCO3"
  target-system: "UniProt P05177"
  cat: 1
- smiles-string: "Cc1cc2c(ccc3c(-c4ccccc4)cc(=O)oc32)o1"
  target-system: "UniProt P05177"
  cat: 0
- smiles-string: "O=c1cc(-c2ccccc2)oc2c3c(ccc12)OCO3"
  target-system: "UniProt P05177"
  cat: 1
- smiles-string: "Cc1cc2c(cc(O)c3c(=O)cc(-c4ccccc4)oc32)o1"
  target-system: "UniProt P05177"
  cat: 1

Here's the next entry for you.
Is reported pKi greater than or equal to 6 here: Cc1c(-c2ccccc2)c2ccc3c(c2oc1=O)C=CCO3
0
